# System: Caco-2 cells
# condition_notes: human (Caco-2), mouse (RAW 264.7)
Marks after values point to notes of the source that are not given here.
metric: transepithelial transport, Apical Medium

The examples below pair each entry with its known result.
COc1cc(C2Oc3cc([C@H]4Oc5cc(O)cc(O)c5C(=O)[C@@H]4O)ccc3OC2CO)ccc1O (some centres unmarked) [Silibinin, silibinin, reference compound] | 44.34 ± 1.96^cd %
C[C@H]1CCCC(=O)CCC/C=C/c2cc(O)cc(O)c2C(=O)O1 | 32.23 ± 1.71^bc %
COc1c(C)c2c(c(O)c1C/C=C(\C)CCC(=O)O)C(=O)OC2 [MPA, mycophenolic acid, reference compound] | 57.27 ± 0.79^ef %
CC1=C[C@H]2O[C@@H]3[C@H](O)C[C@](C)([C@@]2(CO)[C@H](O)C1=O)[C@]31CO1 | 73.33 ± 2.90^f %

Query: Field request: transepithelial transport, Apical Medium | item: "CC(=O)OC[C@]12C[C@H](OC(=O)CC(C)C)C(C)=C[C@H]1O[C@@H]1[C@H](O)[C@@H](O)[C@@]2(C)[C@]12CO2"
Result: 72.63±2.25^f %

Query: Entry to check: "Cc1cc(O)cc2oc(=O)c3c(O)cc(O)cc3c12"
Result: 39.00 ± 22.02^cd %

Query: Next: "CC[C@H](C)[C@H]1C(=O)O[C@H](C(C)C)C(=O)N(C)[C@@H](C(C)C)C(=O)O[C@H](C(C)C)C(=O)N(C)[C@@H](C(C)C)C(=O)O[C@H](C(C)C)C(=O)N1C"
Result: 10.46 ± 2.43^a %

Query: Consider next the compound "CC(C)[C@H]1C(=O)O[C@H](C(C)C)C(=O)N(C)[C@@H](C(C)C)C(=O)O[C@H](C(C)C)C(=O)N(C)[C@@H](C(C)C)C(=O)O[C@H](C(C)C)C(=O)N1C" in the same way.
Result: 24.08 ± 3.20^abc %

Hello, the source for this data is paper PMC7150870, in case you need it.
